These measurements were taken from ChEMBL document CHEMBL3352469.

Biological target: Mu-type opioid receptor (Homo sapiens, UniProt P35372)
Sequence (P35372 whole entry): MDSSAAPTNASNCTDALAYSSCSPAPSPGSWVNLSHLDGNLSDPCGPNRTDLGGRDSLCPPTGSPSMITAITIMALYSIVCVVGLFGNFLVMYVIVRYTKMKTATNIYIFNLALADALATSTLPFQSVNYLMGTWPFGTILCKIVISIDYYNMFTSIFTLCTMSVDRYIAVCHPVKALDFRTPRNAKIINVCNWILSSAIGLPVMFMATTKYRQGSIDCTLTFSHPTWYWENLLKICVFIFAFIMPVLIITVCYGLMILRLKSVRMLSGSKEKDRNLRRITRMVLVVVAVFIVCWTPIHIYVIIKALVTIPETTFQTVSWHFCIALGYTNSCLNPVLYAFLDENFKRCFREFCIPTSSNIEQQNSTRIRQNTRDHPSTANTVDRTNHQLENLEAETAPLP
Experiment: Agonist activity at human recombinant mu opioid receptor expressed in CHO cell membranes after 60 mins by [35S]GTPgammaS binding assay
metric: pEC50
// field semantics: pEC50 = negative decimal log of concentration (mol/L)

Looking for the measured pEC50 of "CN1CC[C@]23c4c5ccc(O)c4O[C@H]2C2=C(C[C@H](CCO)C(=O)N2Cc2ccccc2)C[C@@]3(O)[C@H]1C5" , can you help?
7.02

Looking for the measured pEC50 of "CCOC(=O)Cc1c2c(n(Cc3ccccc3)c1O)[C@@H]1Oc3c(O)ccc4c3[C@@]13CCN(C)[C@H](C4)[C@]3(O)C2" , can you help?
7.15

Looking for the measured pEC50 of "CN1C(=O)CCC2=C1[C@@H]1Oc3c(O)ccc4c3[C@@]13CCN(C)[C@H](C4)[C@]3(O)C2" , can you help?
7.10

Looking for the measured pEC50 of "CN1C(=O)[C@H](CCO)CC2=C1[C@@H]1Oc3c(O)ccc4c3[C@@]13CCN(C)[C@H](C4)[C@]3(O)C2" , can you help?
6.79

###

Target: Delta-type opioid receptor (Homo sapiens, UniProt P41143)
Sequence (P41143 whole entry): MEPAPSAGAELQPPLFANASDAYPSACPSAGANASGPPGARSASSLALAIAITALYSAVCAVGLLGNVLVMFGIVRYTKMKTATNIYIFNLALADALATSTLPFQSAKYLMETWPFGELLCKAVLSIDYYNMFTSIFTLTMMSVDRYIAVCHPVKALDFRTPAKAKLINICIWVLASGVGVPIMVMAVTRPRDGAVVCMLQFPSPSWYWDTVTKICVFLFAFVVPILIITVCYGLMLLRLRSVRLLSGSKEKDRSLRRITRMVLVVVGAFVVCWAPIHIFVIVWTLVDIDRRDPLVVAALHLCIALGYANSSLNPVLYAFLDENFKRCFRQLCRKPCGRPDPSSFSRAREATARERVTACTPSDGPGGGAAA
Assay: Displacement of [3H]Cl-DPDPE from human recombinant delta opioid receptor expressed in CHO cell membranes after 60 mins by scintillation counting method
just bin them by Ki: bottom bin = under 2 nM, middle bin = from 2 nM up to 4 nM, top bin = 4 nM and over

Categorize the following entry: "CN1C(=O)[C@H](CCO)CC2=C1[C@@H]1Oc3c(O)ccc4c3[C@@]13CCN(C)[C@H](C4)[C@]3(O)C2"
middle bin

Categorize the following entry: "O=C1[C@@H](CCO)CC2=C([C@@H]3Oc4c(O)ccc5c4[C@@]34CCN(CC3CC3)[C@H](C5)[C@]4(O)C2)N1Cc1ccccc1"
middle bin

Categorize the following entry: "CCOC(=O)Cc1c2c(n(Cc3ccccc3)c1O)[C@@H]1Oc3c(O)ccc4c3[C@@]13CCN(CC1CC1)[C@H](C4)[C@]3(O)C2"
top bin

Categorize the following entry: "C[C@@H]1CC2=C([C@@H]3Oc4c(O)ccc5c4[C@@]34CCN(CC3CC3)[C@H](C5)[C@]4(O)C2)N(Cc2ccccc2)C1=O"
bottom bin

Categorize the following entry: "C[C@H]1CC2=C([C@@H]3Oc4c(O)ccc5c4[C@@]34CCN(CC3CC3)[C@H](C5)[C@]4(O)C2)N(Cc2ccccc2)C1=O"
bottom bin

Categorize the following entry: "O=C1[C@H](CCO)CC2=C([C@@H]3Oc4c(O)ccc5c4[C@@]34CCN(CC3CC3)[C@H](C5)[C@]4(O)C2)N1Cc1ccccc1"
bottom bin

Categorize the following entry: "CN1CC[C@]23c4c5ccc(O)c4O[C@H]2C2=C(C[C@H](CCO)C(=O)N2Cc2ccccc2)C[C@@]3(O)[C@H]1C5"
middle bin

Categorize the following entry: "CCOC(=O)Cc1c2c(n(Cc3ccccc3)c1O)[C@@H]1Oc3c(O)ccc4c3[C@@]13CCN(C)[C@H](C4)[C@]3(O)C2"
top bin

Categorize the following entry: "O=C1CCC2=C([C@@H]3Oc4c(O)ccc5c4[C@@]34CCN(CC3CC3)[C@H](C5)[C@]4(O)C2)N1Cc1ccccc1"
bottom bin

Categorize the following entry: "CN1C(=O)[C@@H](CCO)CC2=C1[C@@H]1Oc3c(O)ccc4c3[C@@]13CCN(C)[C@H](C4)[C@]3(O)C2"
top bin
